Recorded TI for the following compounds
Assay: Therapeutic Index (IC50/EC50)
// units = Ratio; emit number, no label

Solved cases below.
CCCc1cc(=O)oc2c3c(c4c(c12)OC(C)(C)C=C4)O[C@H](CC)[C@@H](C)[C@H]3O (racemic)    8.2
CCCc1cc(=O)oc2c3c(c4c(c12)OC(C)(C)C=C4)OC(C)(C)[C@H](C)[C@H]3O (racemic)    3.7

Lookup: Entry CCCc1cc(=O)oc2c3c(c4c(c12)OC(C)(C)C=C4)OC[C@H](C)[C@@H]3O (racemic) : reported TI = ?
Found: 3.1

Lookup: Repeat for the following compound: CCCc1cc(=O)oc2c(C(=O)[C@@H](C)[C@H](C)O)c(O)c3c(c12)OC(C)(C)C=C3 (racemic)
Found: 9.6
